Tested on: Jurkat
Experiment: cell count relative to DMSO control (fraction of control); higher = more cells (less growth inhibition)
Conditions: 48 h
Counter-ions that a name gives are not always drawn.
Below, each entry is listed alongside its reported cell count.
metric-name: cell count

compound: CO[C@H]1/C=C/O[C@@]2(C)Oc3c(C)c(O)c4c(O)c(c5c(nc6cc(C)ccn65)c4c3C2=O)NC(=O)/C(C)=C\C=C\[C@H](C)[C@H](O)[C@@H](C)[C@@H](O)[C@@H](C)[C@H](OC(C)=O)[C@@H]1C [Rifaximin] (concentration: 25 µM)
target-entity: Jurkat
metric-name: cell count
result: 0.4

compound: CC(C)C(=O)OCC(=O)[C@@]12O[C@H](C3CCCCC3)O[C@@H]1C[C@H]1[C@@H]3CCC4=CC(=O)C=C[C@]4(C)[C@H]3[C@@H](O)C[C@@]12C [Ciclesonide] (concentration: 2.5 µM)
target-entity: Jurkat
metric-name: cell count
result: 0.838

compound: OCCN1CCN(CCCN2c3ccccc3Sc3ccc(Cl)cc32)CC1 [Perphenazine] (concentration: 2.5 µM)
target-entity: Jurkat
metric-name: cell count
result: 0.556

compound: CC(C)(C)NCC(O)c1ccc(O)c(CO)c1 (stereo not drawn) [Salbutamol Hemisulfate] (concentration: 25 µM)
target-entity: Jurkat
metric-name: cell count
result: 0.916

compound: CCN(CCO)CCCC(C)Nc1ccnc2cc(Cl)ccc12 (stereo not drawn) [Hydroxychloroquine Sulfate] (concentration: 25 µM)
target-entity: Jurkat
metric-name: cell count
result: 1.03

compound: CC(O)(P(=O)(O)O)P(=O)(O)O [Etidronate Disodium] (concentration: 25 µM)
target-entity: Jurkat
metric-name: cell count
result: 0.595

compound: CC[C@]1(O)C[C@H]2CN(CCc3c([nH]c4ccccc34)[C@@](C(=O)OC)(c3cc4c(cc3OC)N(C=O)[C@H]3[C@@](O)(C(=O)OC)[C@H](OC(C)=O)[C@]5(CC)C=CCN6CC[C@]43[C@@H]65)C2)C1 [Vincristine Sulfate] (concentration: 25 nM)
target-entity: Jurkat
metric-name: cell count
result: 0.083

compound: CNCCC=C1c2ccccc2CCc2ccccc21 [Nortriptyline·HCl] (concentration: 25 µM)
target-entity: Jurkat
metric-name: cell count
result: 0.498

compound: CC(C)c1ccc2oc3nc(N)c(C(=O)O)cc3c(=O)c2c1 [Amlexanox] (concentration: 25 µM)
target-entity: Jurkat
metric-name: cell count
result: 0.469

compound: CNC(=C[N+](=O)[O-])NCCSCc1ccc(CN(C)C)o1 [Ranitidine·HCl] (concentration: 25 µM)
target-entity: Jurkat
metric-name: cell count
result: 0.895

compound: C[C@H](CS)C(=O)N1CCC[C@H]1C(=O)O [Captopril] (concentration: 25 µM)
target-entity: Jurkat
metric-name: cell count
result: 1.01

compound: Oc1ncnc2[nH]ncc12 [Allopurinol] (concentration: 25 µM)
target-entity: Jurkat
metric-name: cell count
result: 0.701

compound: Clc1ccc(COC(Cn2ccnc2)c2ccc(Cl)cc2Cl)c(Cl)c1 (stereo not drawn) [Miconazole] (concentration: 25 µM)
target-entity: Jurkat
metric-name: cell count
result: 0.586

---

Tested on: Jurkat
Experiment: cell count relative to DMSO control (fraction of control); higher = more cells (less growth inhibition)
Settings: 48 h
Counter-ions that a name gives are not always drawn.
Label fulfilled when cell count >= 0.8; otherwise not fulfilled.

compound: CN[C@@H]1[C@H](O)[C@H](NC)[C@H]2O[C@@]3(O)C(=O)C[C@@H](C)O[C@H]3O[C@@H]2[C@H]1O [Spectinomycin·HCl Pentahydrate] (concentration: 25 µM)
cat: fulfilled
//
compound: Nc1nc2ccc(OC(F)(F)F)cc2s1 [Riluzole·HCl] (concentration: 2.5 µM)
cat: not fulfilled
//
compound: CCc1nn(CCCN2CCN(c3cccc(Cl)c3)CC2)c(=O)n1CCOc1ccccc1 [Nefazodone·HCl] (concentration: 25 µM)
cat: not fulfilled
//
compound: O=c1[nH]cc(F)c(=O)[nH]1 [Fluorouracil (5-Fluorouracil)] (concentration: 25 µM)
cat: not fulfilled
//
compound: C[C@H]1c2cccc(O)c2C(O)=C2C(=O)[C@]3(O)C(O)=C(C(N)=O)C(=O)[C@@H](N(C)C)[C@@H]3[C@@H](O)[C@@H]21 [Doxycycline Monohydrate] (concentration: 25 µM)
cat: not fulfilled
//
compound: O=C1c2c(O)ccc(O)c2C(=O)c2c(NCCNCCO)ccc(NCCNCCO)c21 [Mitoxantrone·HCl] (concentration: 25 nM)
cat: not fulfilled
//
compound: C#Cc1cccc(Nc2ncnc3cc(OCCOC)c(OCCOC)cc23)c1 [Erlotinib] (concentration: 25 µM)
cat: not fulfilled
//
compound: CC[C@H](C)[C@H](N)C1=N[C@H](C(=O)N[C@@H](CC(C)C)C(=O)N[C@H](CCC(=O)O)C(=O)N[C@H](C(=O)N[C@H]2CCCCNC(=O)[C@H](CC(N)=O)NC(=O)[C@@H](CC(=O)O)NC(=O)[C@H](Cc3cnc[nH]3)NC(=O)[C@@H](Cc3ccccc3)NC(=O)[C@H]([C@@H](C)CC)NC(=O)[C@@H](CCCN)NC2=O)[C@@H](C)CC)CS1 [Bacitracin] (concentration: 25 µM)
cat: not fulfilled
//
compound: C[C@@H](c1ncncc1F)[C@](O)(Cn1cncn1)c1ccc(F)cc1F [Voriconazole] (concentration: 25 µM)
cat: not fulfilled
//
compound: C[C@]12CC[C@@H]3c4ccc(O)cc4C[C@@H](CCCCCCCCC[S+]([O-])CCCC(F)(F)C(F)(F)F)[C@H]3[C@@H]1CC[C@@H]2O (stereo partly drawn) [Fulvestrant] (concentration: 25 µM)
cat: fulfilled
//
compound: CCN(CC)C(=O)/C(C#N)=C/c1cc(O)c(O)c([N+](=O)[O-])c1 [Entacapone] (concentration: 25 µM)
cat: not fulfilled
//
compound: Cn1c(=O)c2c(ncn2C)n(C)c1=O [Caffeine] (concentration: 25 µM)
cat: fulfilled
//
compound: CCCN1CCCC[C@H]1C(=O)Nc1c(C)cccc1C [Ropivacaine·HCl Monohydrate] (concentration: 25 µM)
cat: fulfilled
//
compound: CCNC(=O)CCC/C=C\C[C@@H]1[C@@H](/C=C/[C@@H](O)CCc2ccccc2)[C@H](O)C[C@@H]1O [Bimatoprost] (concentration: 25 µM)
cat: not fulfilled
//
compound: Nc1ccn([C@H]2CC[C@@H](CO)O2)c(=O)n1 [Zalcitabine (2',3'-Dideoxycytidine)] (concentration: 25 µM)
cat: not fulfilled
//
compound: NC[C@@H]1O[C@H](O[C@H]2[C@@H](O)[C@H](O[C@@H]3[C@@H](O)[C@H](N)C[C@H](N)[C@H]3O[C@H]3O[C@H](CO)[C@@H](O)[C@H](O)[C@H]3N)O[C@@H]2CO)[C@H](N)[C@@H](O)[C@@H]1O [Paromomycin Sulfate] (concentration: 25 µM)
cat: not fulfilled
//
compound: CN1CCC(=C2c3ccccc3CC(=O)c3sccc32)CC1 [Ketotifen Fumarate] (concentration: 25 µM)
cat: fulfilled
//
compound: O=C(O)C(=O)O.[NH-][C@@H]1CCCC[C@H]1[NH-].[Pt+2] [Oxaliplatin] (concentration: 25 µM)
cat: not fulfilled
//
compound: CCCCc1oc2ccccc2c1C(=O)c1cc(I)c(OCCN(CC)CC)c(I)c1 [Amiodarone·HCl] (concentration: 2.5 µM)
cat: not fulfilled
//
compound: COc1ccc2[nH]c([S+]([O-])Cc3ncc(C)c(OC)c3C)nc2c1 (stereo not drawn) [Omeprazole] (concentration: 25 µM)
cat: fulfilled
//
compound: CC(=O)OCC(=O)[C@@]1(O)CC[C@H]2[C@@H]3CCC4=CC(=O)CC[C@]4(C)[C@H]3[C@@H](O)C[C@@]21C [Hydrocortisone Acetate] (concentration: 25 µM)
cat: not fulfilled
//
compound: O=C1Cc2cc(CCN3CCN(c4nsc5ccccc45)CC3)c(Cl)cc2N1 [Ziprasidone] (concentration: 25 µM)
cat: fulfilled

---

Below, each entry is listed alongside its reported cell count.
System: Jurkat
Test: cell count relative to DMSO control (fraction of control); higher = more cells (less growth inhibition)
Settings: 48 h
Where a name gives a salt, the structure may show the parent alone.
metric-name: cell count

compound: CC(=O)[C@@]1(O)CC[C@H]2[C@@H]3C[C@H](C)C4=CC(=O)C=C[C@]4(C)[C@@]3(F)[C@@H](O)C[C@@]21C [Fluorometholone] (concentration: 25 µM)
numeric-readout: 0.639
//
compound: NCCCCCC(=O)O [Aminocaproic Acid] (concentration: 25 µM)
numeric-readout: 0.853
//
compound: CCS(=O)(=O)CCn1c([N+](=O)[O-])cnc1C [Tinidazole] (concentration: 25 µM)
numeric-readout: 0.528
//
compound: CNS(=O)(=O)Cc1ccc2[nH]cc(CCN(C)C)c2c1 [Sumatriptan Succinate] (concentration: 25 µM)
numeric-readout: 0.738
//
compound: CCC1=C(C)CN(C(=O)NCCc2ccc(S(=O)(=O)NC(=O)N[C@H]3CC[C@H](C)CC3)cc2)C1=O [Glimepiride] (concentration: 25 µM)
numeric-readout: 0.859
//
compound: OCCN(CCO)c1nc(N2CCCCC2)c2nc(N(CCO)CCO)nc(N3CCCCC3)c2n1 [Dipyridamole] (concentration: 25 µM)
numeric-readout: 0.652
//
compound: CC(=O)[C@]1(O)Cc2c(O)c3c(c(O)c2[C@@H](O[C@H]2C[C@H](N)[C@H](O)[C@H](C)O2)C1)C(=O)c1ccccc1C3=O [Idarubicin·HCl] (concentration: 25 nM)
numeric-readout: 0.622
//
compound: CCN(CC)CCCC(C)Nc1ccnc2cc(Cl)ccc12 (stereo not drawn) [Chloroquine Diphosphate] (concentration: 25 µM)
numeric-readout: 1.03
//
compound: O=C(NCC1CCCCN1)c1cc(OCC(F)(F)F)ccc1OCC(F)(F)F (stereo not drawn) [Flecainide Acetate] (concentration: 25 µM)
numeric-readout: 0.725
//
compound: CCOC(=O)[C@H](CCc1ccccc1)N[C@@H](C)C(=O)N1CCC[C@H]1C(=O)O [Enalapril] (concentration: 25 µM)
numeric-readout: 0.733
//
compound: CC(=O)Oc1ccc(C(c2ccc(OC(C)=O)cc2)c2ccccn2)cc1 [Bisacodyl] (concentration: 25 µM)
numeric-readout: 0.813
//
compound: CCc1c2c(nc3ccc(OC(=O)N4CCC(N5CCCCC5)CC4)cc13)-c1cc3c(c(=O)n1C2)COC(=O)[C@]3(O)CC [Irinotecan·HCl] (concentration: 250 nM)
numeric-readout: 0.414
//
compound: CN1C(=O)OC(C)(C)C1=O [Trimethadione] (concentration: 25 µM)
numeric-readout: 1.02
